# Test system: L6
# test-name: DNDI: Cytotoxicity against L-6 rat myoblasts from skeletal muscle cells
# test-conditions: L6 rat skeletal muscle myoblast cells
Reported pIC50 values for the following molecules.
The scale used: pIC50 is minus the common logarithm of the concentration in molar units.

1. CC(C)(C)OC(=O)N1CCN(C(c2cncnc2)c2ccc(Cl)cc2F)CC1 (stereo unspecified) | 4.19
2. Fc1cc(Cl)ccc1C(c1cccnc1)N1CCN(c2ccccc2)CC1 (stereo unspecified) | 4.24
3. O=C(Oc1ccccc1)N1CCN(C(c2ccc(Cl)cc2)c2cccnc2)CC1 (stereo unspecified) | 4.25
4. Clc1ccc(C(c2cccnc2)N2CCN(c3ccccc3)CC2)cc1 (stereo unspecified) | 4.17
5. CC(C)c1ccc(NC(=O)N2CCN(C(c3cncnc3)c3ccc(Cl)cc3F)CC2)cc1 (stereo unspecified) | 4.21
6. OC(c1ccc(Cl)cc1)(c1ccc(Cl)cc1)c1cccnc1 | 4.31
7. Fc1cc(Cl)ccc1C(c1cccnc1)N1CCN(c2ncccn2)CC1 (stereo unspecified) | 4.23
8. OC(c1ccc(Cl)cc1)(c1cccnc1)c1ccccc1Cl (stereo unspecified) | 4.21

For reference, reported pIC50 for OC(c1ccc(Cl)cc1)(c1cccnc1)c1ccc(F)cc1F (stereo unspecified) stands at 4.15

For reference, reported pIC50 for Cc1ccc(C(O)(c2ccc(Cl)cc2)c2cncnc2)cc1 (stereo unspecified) stands at 4.17

For reference, reported pIC50 for Cc1noc(N2CCN(C(c3cccnc3)c3ccc(C(F)(F)F)cc3F)CC2)n1 (stereo unspecified) stands at 4.29

---

# test-name: DNDI: Cytotoxicity against L-6 rat myoblasts from skeletal muscle cells
# test-conditions: L6 rat skeletal muscle myoblast cells, IC50
Reported pIC50 values for the following compounds.
The scale used: pIC50 is minus the common logarithm of the concentration in molar units.

Some compounds with known pIC50 results, for comparison:
1) O=S(=O)(c1ccc(C(F)(F)F)cc1)N1CCN(C(c2ccc(Cl)cc2)c2cncnc2)CC1 (stereo not given) | 4.24
2) Fc1cc(Cl)ccc1C(NC1CCN(c2ccc(Cl)cc2)CC1)c1cccnc1 (stereo not given) | 4.33
3) Cc1nc(C(=O)NC2CCN(C(c3ccc(C(F)(F)F)cc3)c3cccnc3)CC2)cs1 (stereo not given) | 4.36

For reference, reported pIC50 for O=S(=O)(NC1CCN(C(c2ccc(C(F)(F)F)cc2)c2cnccn2)CC1)C1CCCCC1 (stereo not given) stands at 4.24

For reference, reported pIC50 for CC(c1ccccc1)N1CCC(NC(c2cccnc2)c2ccc(Cl)cc2F)CC1 (stereo not given) stands at 4.72

---

# test-name: DNDI: Cytotoxicity against L-6 rat myoblasts from skeletal muscle cells
# test-conditions: L6 rat skeletal muscle myoblast cells, IC50
Reported IC50 values for the following molecules.

Some molecules with known IC50 results, for comparison:
1. NC(=O)c1cccc(C(O)(c2ccc(C(F)(F)F)cc2)c2cccnc2)c1 (stereo not given) | > 100 µM
2. Clc1ccc(C(=NN2CCCCC2)c2cccnc2)cc1 | 56.8 µM
3. N#Cc1ccc(C(c2cccnc2)N2CCC(NC(=O)c3cccc(C(F)(F)F)c3)CC2)cc1 (stereo not given) | > 100 µM
4. O=C(NC(c1ccc(C(F)(F)F)cc1)c1cnccn1)c1ccc(Cl)cc1 (stereo not given) | 61.8 µM
5. O=C(c1ccccc1)N1CCC(NC(c2cccnc2)c2ccc(Cl)cc2F)CC1 (stereo not given) | 70.9 µM

For reference, reported IC50 for O=C(NC1CCN(C(c2cnccn2)c2ccc(F)cc2F)CC1)C1CC1 (stereo not given) stands at > 100 µM

For reference, reported IC50 for N#Cc1ccc(C(c2cccnc2)N2CCC(NC(=O)Nc3ccccc3)CC2)cc1 (stereo not given) stands at > 100 µM

For reference, reported IC50 for CON=C(Cc1cccnc1)c1ccc(Cl)cc1Cl stands at > 100 µM

For reference, reported IC50 for C#CCOC(=O)[C@@H](C)Oc1ccc(Oc2ncc(Cl)cc2F)cc1 [CLODINAFOP PROPARGYL] stands at > 100 µM

For reference, reported IC50 for FC(F)(F)c1ccc(C(NCC2CCCCC2)c2cnccn2)cc1 (stereo not given) stands at 59.2 µM
